# Protocol Text: qHTS of pediatric cancer cell lines to identify multiple opportunities for drug repurposing: Primary screen for DAOY cells (AID 1347090); further: nearly all actives have a fitted effect of over 55% in size
# Protocol Conditions: DAOY medulloblastoma viability, CellTiter-Glo luminescence, 48 h; series mostly up to 46 µM
# Procedure: Drug repurposing or repositioning has been offered as a strategy for drug development in oncology programs. […] [1] Shen, M et al. Quantitative high-throughput phenotypic screening of pediatric cancer cell lines identifies multiple opportunities for drug repurposing. […] Cells were assayed in growth media at a density of 500-1,000 cells/well. […] After a 15 min incubation at room temperature, samples were analyzed for luminescence intensity using a ViewLux High-throughput CCD imager equipped with clear filters.
Inconclusive results are not listed. The source made the active and inactive calls. The call rests on the fitted dose curve; in most records, active means well fitted cell-killing curve with a large enough effect; inconclusive means small, poorly fitted or top-dose-only effect; inactive means flat fitted curve, though single readings scatter.
Possible outcomes: active, inactive

[[record]]
compound = "O=C(O)c1cc(O)c2c(c1)C(=O)c1cccc(O)c1C2=O"
class = "inactive"

[[record]]
compound = "CN1CCN(CCOc2cc(OC3CCOCC3)c3c(Nc4c(Cl)ccc5c4OCO5)ncnc3c2)CC1"
class = "active"

[[record]]
compound = "Nc1ncnc2c1ncn2[C@@H]1O[C@@H](CO)[C@H](O)[C@H]1O"
class = "inactive"

[[record]]
compound = "CC(=O)Oc1cc2c(s1)CCN(C(C(=O)C1CC1)c1ccccc1F)C2 (stereo not given)"
class = "active"

[[record]]
compound = "O=C1NC(=O)C(c2ccccc2)(c2ccccc2)N1"
class = "inactive"

